Quick note: these are pIC50 numbers for system: FGFR3 kinase (Homo sapiens, UniProt P22607)
Sequence (P22607 23-806): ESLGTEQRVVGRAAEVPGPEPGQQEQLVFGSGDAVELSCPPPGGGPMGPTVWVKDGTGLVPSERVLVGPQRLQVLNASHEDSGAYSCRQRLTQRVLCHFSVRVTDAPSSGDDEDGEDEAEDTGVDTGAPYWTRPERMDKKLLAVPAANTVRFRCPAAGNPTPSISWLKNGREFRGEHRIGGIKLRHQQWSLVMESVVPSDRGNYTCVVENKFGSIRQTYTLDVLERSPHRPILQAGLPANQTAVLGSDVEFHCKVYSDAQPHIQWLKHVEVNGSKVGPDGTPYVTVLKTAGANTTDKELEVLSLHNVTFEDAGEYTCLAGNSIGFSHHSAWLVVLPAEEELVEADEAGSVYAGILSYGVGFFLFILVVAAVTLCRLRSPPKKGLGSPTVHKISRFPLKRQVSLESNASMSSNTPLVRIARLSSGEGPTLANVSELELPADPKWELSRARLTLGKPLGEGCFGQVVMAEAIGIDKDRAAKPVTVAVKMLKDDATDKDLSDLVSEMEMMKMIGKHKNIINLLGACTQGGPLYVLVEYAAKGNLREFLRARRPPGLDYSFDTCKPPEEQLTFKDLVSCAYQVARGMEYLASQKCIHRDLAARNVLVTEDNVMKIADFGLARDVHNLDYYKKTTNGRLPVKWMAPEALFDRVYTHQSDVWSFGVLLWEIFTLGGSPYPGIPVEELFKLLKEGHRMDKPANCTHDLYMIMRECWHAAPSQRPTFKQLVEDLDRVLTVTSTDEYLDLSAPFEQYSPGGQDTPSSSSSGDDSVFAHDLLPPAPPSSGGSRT
pIC50: −log10 of the molar value.
quantityName: pIC50

The examples below pair each entry with its known result.
- compound: "CCN1CCN(c2ccc(Nc3ncc(CCc4cc(OC)cc(C(=O)NOC)c4)cn3)cc2)C[C@H]1C [Compound 48]"
  pIC50: 7.82
- compound: "CONC(=O)c1cc(COc2cnc(Nc3cnn(C)c3)nc2)c(Cl)c(OC)c1 [Compound 185]"
  pIC50: 8.40
- compound: "CCN(CC)CCCn1cc(Nc2ncc(CCc3cc(C(=O)NC)cc(OC)c3F)cn2)cn1 [Compound 13]"
  pIC50: 8.15

(1) CNC(=O)c1cc(CCc2cnc(Nc3cnn(CC(=O)N4CCCC4)c3)nc2)c(F)c(OC)c1 [Compound 143]
(2) CNC(=O)c1cc(CCc2cnc(Nc3cnn(CCN4CCN(C)CC4)c3)nc2)c(F)c(OC)c1 [Compound 45]
Prompt: Which value of pIC50 is numerically greater: that of 1 or that of 2 ? In your reply, give the label of the chosen option.
Completion: 2
